Cited source for all entries: patent US20260001875A1

Listed next: entries and their corresponding inhibition at 0.033 µM.
Test system: Rab10 pThr73
test_details: Rab10 Thr73 dephosphorylation (immunoblot) in LRRK2^G2019S MEFs
Type: cell-based
stated_conditions: Mus musculus, 33 nM/4 h treatment; read-out: pRab10 inhibited in LRRK2^G2019S MEFs
measured_endpoint: inhibition at 0.033 µM

[[record]]
compound = "CNc1nc(Nc2ccc(C(=O)N3CCN(C[C@H]4CC[C@@H](CSC(C)(C)[C@H](NC(=O)C5(F)CC5)C(=O)N5C[C@H](O)CC5C(=O)NCc5ccc(-c6scnc6C)cc5F)CC4)CC3)cc2OC)ncc1Cl (stereo partly drawn)"
measured_endpoint = "inhibition at 0.033 µM"
endpoint_result = "0 to 90%"

[[record]]
compound = "CNc1nc(Nc2ccc(C(=O)N3CCN(C[C@H]4CC[C@H](CSC(C)(C)[C@H](NC(=O)C5(F)CC5)C(=O)N5C[C@H](O)CC5C(=O)NCc5ccc(-c6scnc6C)cc5C)CC4)CC3)cc2OC)ncc1Cl (stereo partly drawn)"
measured_endpoint = "inhibition at 0.033 µM"
endpoint_result = "0 to 90%"

[[record]]
compound = "CNc1nc(Nc2ccc(C(=O)N3CCN(CCOCCOCCOCCOCCOc4cccc(C(=O)c5csc(C6CCCN6C(=O)[C@@H](NC(=O)[C@H](C)NC)C6CCCCC6)n5)c4)CC3)cc2OC)ncc1Cl (stereo partly drawn)"
measured_endpoint = "inhibition at 0.033 µM"
endpoint_result = "0 to 60%"

[[record]]
compound = "CNc1nc(Nc2ccc(C(=O)N3CCN(CCOCCOCCOc4cc(-c5scnc5C)ccc4CNC(=O)[C@@H]4C[C@@H](O)CN4C(=O)[C@@H](NC(=O)C4(F)CC4)C(C)(C)C)CC3)cc2OC)ncc1Cl"
measured_endpoint = "inhibition at 0.033 µM"
endpoint_result = "0 to 60%"

[[record]]
compound = "CNc1nc(Nc2ccc(C(=O)N3CCC4(CCN(C[C@H]5CC[C@H](CSC(C)(C)C(NC(=O)C6(F)CC6)C(=O)N6C[C@H](O)C[C@H]6C(=O)NCc6ccc(-c7scnc7C)cc6)CC5)CC4)CC3)cc2OC)ncc1Cl (stereo partly drawn)"
measured_endpoint = "inhibition at 0.033 µM"
endpoint_result = "0 to 90%"

[[record]]
compound = "CNc1nc(Nc2ccc(C(=O)N3CCN(Cc4ccc(CSC(C)(C)[C@H](NC(=O)C5(F)CC5)C(=O)N5C[C@H](O)C[C@H]5C(=O)NCc5ccc(-c6scnc6C)c(F)c5)cc4)CC3)cc2OC)ncc1Cl"
measured_endpoint = "inhibition at 0.033 µM"
endpoint_result = "0 to 70%"

[[record]]
compound = "CNc1nc(Nc2ccc(C(=O)N3CCN(CCCSC(C)(C)[C@H](NC(=O)C4(F)CC4)C(=O)N4C[C@H](O)C[C@H]4C(=O)NCc4ccc(-c5scnc5C)c(F)c4)CC3)cc2OC)ncc1Cl"
measured_endpoint = "inhibition at 0.033 µM"
endpoint_result = "0 to 70%"

[[record]]
compound = "CNc1nc(Nc2ccc(C(=O)N3CCN(Cc4ccc(CSC(C)(C)[C@H](NC(=O)C5(F)CC5)C(=O)N5C[C@H](O)C[C@H]5C(=O)NCc5ccc(-c6scnc6C)cc5)cc4)CC3)cc2OC)ncc1Cl"
measured_endpoint = "inhibition at 0.033 µM"
endpoint_result = "0 to 60%"

[[record]]
compound = "CNc1nc(Nc2ccc(C(=O)N3CCN(C[C@H]4CC[C@H](CSC(C)(C)[C@H](NC(=O)C5(F)CC5)C(=O)N5C[C@H](O)CC5C(=O)NCc5ccc(-c6scnc6C)cc5F)CC4)CC3)cc2OC)ncc1Cl (stereo partly drawn)"
measured_endpoint = "inhibition at 0.033 µM"
endpoint_result = "0 to 90%"

[[record]]
compound = "CNc1nc(Nc2ccc(OC[C@H]3CC[C@H](CSC(C)(C)C(NC(=O)C4(F)CC4)C(=O)N4C[C@H](O)C[C@H]4C(=O)NCc4ccc(-c5scnc5C)cc4)CC3)cc2OC)ncc1Cl (stereo partly drawn)"
measured_endpoint = "inhibition at 0.033 µM"
endpoint_result = "0 to 70%"

[[record]]
compound = "CNc1nc(Nc2ccc(C(=O)N3CCN(C[C@H]4CC[C@H](CSC(C)(C)[C@H](NC(=O)C5(F)CC5)C(=O)N5C[C@H](O)[C@H](F)C5C(=O)NCc5ccc(-c6scnc6C)cc5)CC4)CC3)cc2OC)ncc1Cl (stereo partly drawn)"
measured_endpoint = "inhibition at 0.033 µM"
endpoint_result = "20 to 50%"

[[record]]
compound = "CNc1nc(Nc2ccc(C(=O)N3CCN(CCCSC(C)(C)[C@H](NC(=O)C4(F)CC4)C(=O)N4C[C@H](O)C[C@H]4C(=O)NCc4ccc(-c5scnc5C)cc4)CC3)cc2OC)ncc1Cl"
measured_endpoint = "inhibition at 0.033 µM"
endpoint_result = "0 to 60%"

[[record]]
compound = "CNc1nc(Nc2ccc(C(=O)N3CCN(Cc4cccc(CSC(C)(C)[C@H](NC(=O)C5(F)CC5)C(=O)N5C[C@H](O)C[C@H]5C(=O)NCc5ccc(-c6scnc6C)cc5)c4)CC3)cc2OC)ncc1Cl"
measured_endpoint = "inhibition at 0.033 µM"
endpoint_result = "0 to 70%"

[[record]]
compound = "CNc1nc(Nc2ccc(C(=O)N3CCN(CCOCCOCCSC(C)(C)[C@H](NC(=O)C4(F)CC4)C(=O)N4C[C@H](O)C[C@H]4C(=O)N[C@@H](C)c4ccc(-c5scnc5C)cc4)CC3)cc2OC)ncc1Cl"
measured_endpoint = "inhibition at 0.033 µM"
endpoint_result = "0 to 70%"

[[record]]
compound = "CNc1nc(Nc2ccc(C(=O)N3CCN(C[C@@H]4CCC[C@H](CSC(C)(C)[C@H](NC(=O)C5(F)CC5)C(=O)N5C[C@H](O)C[C@H]5C(=O)NCc5ccc(-c6scnc6C)cc5)C4)CC3)cc2OC)ncc1Cl"
measured_endpoint = "inhibition at 0.033 µM"
endpoint_result = "0 to 90%"

[[record]]
compound = "CNc1nc(Nc2ccc(C(=O)N3CCN(CC4CC[C@H](CSC(C)(C)C(NC(=O)C5(F)CC5)C(=O)N5C[C@H](O)C[C@H]5C(=O)NCc5ccc(-c6scnc6C)cc5)C4)CC3)cc2OC)ncc1Cl (stereo in doubt)"
measured_endpoint = "inhibition at 0.033 µM"
endpoint_result = "20 to 50%"

[[record]]
compound = "CNc1nc(Nc2ccc(C(=O)N3CCN(CCCSC(C)(C)[C@H](NC(=O)C4(F)CC4)C(=O)N4C[C@H](O)C[C@H]4C(=O)N[C@@H](C)c4ccc(-c5scnc5C)cc4)CC3)cc2OC)ncc1Cl"
measured_endpoint = "inhibition at 0.033 µM"
endpoint_result = "0 to 70%"

[[record]]
compound = "CNc1nc(Nc2ccc(C(=O)N3CCN(C[C@H]4CC[C@@H](CSC(C)(C)[C@H](NC(=O)C5(F)CC5)C(=O)N5C[C@H](O)CC5C(=O)NCc5ccc(-c6scnc6C)cc5C)CC4)CC3)cc2OC)ncc1Cl (stereo partly drawn)"
measured_endpoint = "inhibition at 0.033 µM"
endpoint_result = "0 to 90%"


* * *

Items are presented alongside their recorded inhibition at 1 µM.
Tested on: Rab10 pThr73
test_details: Rab10 Thr73 dephosphorylation (immunoblot) in WT MEFs
Format: cell-based, mouse
stated_conditions: Mus musculus, 1 μM/24 h treatment; read-out: pRab10 inhibited in WT MEFs
Method: Western blot degradation assays for the LRRK2 protacs were performed with WT and PD-associated LRRK2 [G2019S] mouse embryonic fibroblasts (MEFs). The second-generation PROTACs were tested in parallel with the first generation PROTACs SD75, SD82, and SD100. The compounds were tested at 33 nM or […] concentrations for 4 hours or 24 hours, running two biological replicates per condition and achieving quantifications representative of both replicates. […]
measured_endpoint: inhibition at 1 µM

[[record]]
compound = "CNc1nc(Nc2ccc(C(=O)N3CCN(CCCOc4cccc(C(=O)c5csc(C6CCCN6C(=O)[C@@H](NC(=O)[C@H](C)NC)C6CCCCC6)n5)c4)CC3)cc2OC)ncc1Cl (stereo partly drawn)"
endpoint_result = "30 to 90%"

[[record]]
compound = "CNc1nc(Nc2ccc(C(=O)N3CCN(CCCSC(C)(C)[C@H](NC(=O)C4(F)CC4)C(=O)N4C[C@H](O)C[C@H]4C(=O)NCc4ccc(-c5scnc5C)c(F)c4)CC3)cc2OC)ncc1Cl"
endpoint_result = "30 to 100%"

[[record]]
compound = "CNc1nc(Nc2ccc(C(=O)N3CCN(C[C@H]4CC[C@H](CSC(C)(C)[C@H](NC(=O)C5(F)CC5)C(=O)N5C[C@H](O)CC5C(=O)N[C@@H](C)c5ccc(-c6scnc6C)cc5)CC4)CC3)cc2OC)ncc1Cl (stereo partly drawn)"
endpoint_result = "80 to 100%"


* * *

assayed_system: VHL (Homo sapiens)
Sequence (P40337 whole entry): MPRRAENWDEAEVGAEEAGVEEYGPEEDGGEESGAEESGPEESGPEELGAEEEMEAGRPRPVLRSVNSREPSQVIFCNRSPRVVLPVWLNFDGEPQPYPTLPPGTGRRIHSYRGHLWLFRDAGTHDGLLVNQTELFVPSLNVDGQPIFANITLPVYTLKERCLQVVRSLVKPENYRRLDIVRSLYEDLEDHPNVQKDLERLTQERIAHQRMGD
test_details: NanoBRET VHL target engagement in HEK293 cells
Format: binding
Set-up: host or cells: HEK293
stated_conditions: live HEK293 cells; read-out: IC50 VHL tracer displacement
Excerpt: For VHL and LRRK2 target engagement experiments in live and permeabilized cells, the HEK293 cells were transfected with VHL-NanoLuc fusion vector (Promega, N275A) or LRRK2-NanoLuc fusion vector (Promega, NV3401) following Promega's protocol and seeded into white 384-well plate (Corning3570) at a density of 6000 cells/well. […]
pIC50: −log10 of the molar value.
measured_endpoint: pIC50

[[record]]
compound = "CNc1nc(Nc2ccc(C(=O)N3CCN(CCOCCOCCSC(C)(C)[C@H](NC(=O)C4(F)CC4)C(=O)N4C[C@H](O)C[C@H]4C(=O)NCc4ccc(-c5scnc5C)cc4)CC3)cc2OC)ncc1Cl"
measured_endpoint = "pIC50"
endpoint_result = 5.60

[[record]]
compound = "CNc1nc(Nc2ccc(C(=O)N3CCN(C[C@H]4CC[C@H](CSC(C)(C)[C@H](NC(=O)C5(F)CC5)C(=O)N5C[C@H](O)CC5C(=O)NCc5ccc(-c6scnc6C)cc5)CC4)CC3)cc2OC)ncc1Cl (stereo partly drawn)"
measured_endpoint = "pIC50"
endpoint_result = 5.00

[[record]]
compound = "CNc1nc(Nc2ccc(C(=O)N3CCN(C[C@H]4CC[C@@H](CSC(C)(C)[C@H](NC(=O)C5(F)CC5)C(=O)N5C[C@H](O)CC5C(=O)NCc5ccc(-c6scnc6C)cc5)CC4)CC3)cc2OC)ncc1Cl (stereo partly drawn)"
measured_endpoint = "pIC50"
endpoint_result = 6.06

